# assay.remarks: Log P by HPLC on reversed phase columns (EEC directive 79/831 Annex V.A8; methods [a], [b], [c])
# Type: physicochemical
# conditions.used: reversed phase HPLC column; method [a]: LC-UV, acidic range, 0.1% formic acid in water and acetonitrile as eluent (linear gradient from 10% to 95% acetonitrile)
Checkbox rule: chromatographic logP lower than 3 = Criterion met; chromatographic logP not lower than 3 = Criterion not met.

Reference set (4 entries):
                                   molecule        label_class
0  O=C(Cn1cncc1F)c1cnc(Oc2ccc(OC(F)(F)F)cc2)cc1C(F)(F)F [IX-108]      Criterion met
1  O=C(Cn1cncc1Cl)c1ccc(Oc2ccc(I)cc2)cc1Br [IX-38]  Criterion not met
2  N#Cc1cncn1CC(=O)c1ccc(Oc2ccc(C(F)(F)F)cc2)cc1C(F)(F)F [IX-69]  Criterion not met
3     O=C(Cn1cncc1Cl)c1ccc(Cl)cc1Cl [IX-19]      Criterion met

Decide: chromatographic logP of N#Cc1cncn1CC(=O)c1ccc(Oc2ccc(Cl)cc2)cc1Cl [IX-31] strictly below 3? Criterion not met
